# Potency listing for each entry below
- Tested on: mouse carcinogenicity bioassay, TD50 from CPDB
- METHOD SUMMARY: DSSTox (CPDBAS) Carcinogenic Potency Database Summary Mouse Bioassay Results
- CONDITIONS USED: TD50_Mouse_Note: TD50 is harmonic mean of more than one positive test; TargetSites_Mouse_Female: liver

Example compounds with recorded Potency:
COMPOUND	MEAS VALUE
Nc1ccc(Cl)cc1N	9.4 mmol/kg/day
O=C(O)C(Cl)Cl	0.923 mmol/kg/day
Nc1ccc2ccccc2c1	0.275 mmol/kg/day

Here is another compound to look at.
[in] Give its Potency value. Item: `ClC(Cl)(Cl)C(Cl)(Cl)Cl`
[out] 1.43 mmol/kg/day

* * *

// Potency lookup, one value per entry
- System: mouse carcinogenicity bioassay, TD50 from CPDB
- METHOD SUMMARY: DSSTox (CPDBAS) Carcinogenic Potency Database Summary Mouse Bioassay Results
- CONDITIONS USED: TD50_Mouse_Note: TD50 is harmonic mean of more than one positive test; TargetSites_Mouse_Female: liver

[in] Need Potency, item `O=Cc1ccco1`
[out] 2.05 mmol/kg/day

[in] Requested read-out: Potency. Entry: `Cc1ccc(N=Nc2c(O)c(S(=O)(=O)O)cc3ccc(S(=O)(=O)O)cc23)c(C)c1`
[out] 1.49 mmol/kg/day

[in] Suppose we examine the molecule `O=C(O)c1cc(N=Nc2ccc(S(=O)(=O)Nc3ccccn3)cc2)ccc1O` ; what Potency value has been reported?
[out] 3.14 mmol/kg/day

[in] Need Potency, item `Cc1c(N)nc(C)c2c1[nH]c1ccccc12`
[out] 0.15 mmol/kg/day

[in] Bench note: what Potency did `CCn1nc(C)c2c1C(c1ccccc1)=NCC(=O)N2` show?
[out] 0.425 mmol/kg/day

[in] Would you kindly share the measured Potency for `O=C(O)C(Cl)(Cl)Cl` ?
[out] 3.57 mmol/kg/day

[in] Any idea what Potency was measured for `Nc1ccc(-c2ccc(F)cc2)cc1` ?
[out] 0.00609 mmol/kg/day

* * *

- Test system: mouse carcinogenicity bioassay, TD50 from CPDB
- METHOD SUMMARY: DSSTox (CPDBAS) Carcinogenic Potency Database Summary Mouse Bioassay Results
- CONDITIONS USED: TD50_Mouse_Note: TD50 is harmonic mean of more than one positive test; TargetSites_Mouse_Female: liver
READOUT KIND: Potency

[in] What does the data say about its Potency? Entry: `O=[N+]([O-])c1ccc2nc[nH]c2c1`
[out] 2.28 mmol/kg/day

[in] Endpoint output: Potency of `Cc1ccc(C)c(N)c1` . Value?
[out] 3.97 mmol/kg/day

[in] Any idea what its Potency is? The compound is CCCCC(CC)COC(=O)c1ccccc1C(=O)OCC(CC)CCCC (configuration not stated)
[out] 1.79 mmol/kg/day

[in] Entry `Brc1cc(Br)c(-c2c(Br)c(Br)c(Br)c(Br)c2Br)c(Br)c1Br` : reported Potency = ?
[out] 0.00418 mmol/kg/day

[in] Which measured Potency value corresponds to CC(Cl)CCl (configuration not stated) ?
[out] 2.44 mmol/kg/day

* * *

- Test system: mouse carcinogenicity bioassay, TD50 from CPDB
- METHOD SUMMARY: DSSTox (CPDBAS) Carcinogenic Potency Database Summary Mouse Bioassay Results
- CONDITIONS USED: TD50_Mouse_Note: TD50 is harmonic mean of more than one positive test; TargetSites_Mouse_Female: liver
READOUT KIND: Potency

Worked cases, answers included:
CPD SMILES	Potency
Nc1nc(N)c2nc(-c3ccccc3)c(N)nc2n1	0.238 mmol/kg/day
Nc1ccccc1C(=O)OC/C=C/c1ccccc1	10.2 mmol/kg/day
c1ccncc1	0.308 mmol/kg/day

[in] Which Potency reading was recorded for the compound `Nc1cc(Cl)c(N)c(Cl)c1` ?
[out] 4.54 mmol/kg/day

[in] Item under review: `Nc1ccccc1N` . Reported Potency?
[out] 4.06 mmol/kg/day

[in] Look up Potency: `Clc1c(Cl)c(Cl)c(Cl)c(Cl)c1Cl`
[out] 0.229 mmol/kg/day

[in] Field request: Potency | item: `ClC=C(Cl)Cl`
[out] 2.61 mmol/kg/day

Each recorded value in this set is attributed to PubChem BioAssay AID1199.
